Assign Hepatotoxicity (cytolytic) to each entry below.
# condition label: human;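 also: human cytolytic liver injury, shown by histopathology or by a ratio above 5 of peak ALT or AST elevation to alkaline phosphatase elevation, value counts indexed references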

Give me measured Hepatotoxicity (cytolytic), please, for this molecule: `CC[C@]1(O)C[C@@H]2CN(CCc3c([nH]c4ccccc34)[C@@](C(=O)OC)(c3cc4c(cc3OC)N(C)[C@H]3[C@@](O)(C(N)=O)[C@H](O)[C@]5(CC)C=CCN6CC[C@]43[C@@H]65)C2)C1`
0

Give me measured Hepatotoxicity (cytolytic), please, for this molecule: `Nc1ccn([C@@H]2CS[C@H](CO)O2)c(=O)n1`
26

Give me measured Hepatotoxicity (cytolytic), please, for this molecule: CNC1Cc2ccccc2N(C)c2ccccc21 (centres undefined)
1

Give me measured Hepatotoxicity (cytolytic), please, for this molecule: CN(C)CC/C=C1\c2ccccc2CSc2ccccc21 [DOTHIEPIN]
2

###

Assign Hepatotoxicity (cytolytic) to each entry below.
# condition label: human

Give me measured Hepatotoxicity (cytolytic), please, for this compound: O=C(O)COCCN1CCN(C(c2ccccc2)c2ccc(Cl)cc2)CC1 (stereo not drawn)
4

Give me measured Hepatotoxicity (cytolytic), please, for this compound: `CN(C)CCCN1c2ccccc2C(C)(C)c2ccccc21`
0

Give me measured Hepatotoxicity (cytolytic), please, for this compound: `Cc1cc2c(C(C)C)c(O)c(O)c(C=O)c2c(O)c1-c1c(C)cc2c(C(C)C)c(O)c(O)c(C=O)c2c1O`
0

Give me measured Hepatotoxicity (cytolytic), please, for this compound: `O=C(O)C1=C(CSc2nnnn2CS(=O)(=O)O)CS[C@@H]2[C@H](NC(=O)[C@H](O)c3ccccc3)C(=O)N12`
0

Give me measured Hepatotoxicity (cytolytic), please, for this compound: `CN1c2c(oc(=O)n(-c3ccccn3)c2=O)-c2ccccc2S1(=O)=O`
4

Give me measured Hepatotoxicity (cytolytic), please, for this compound: `CN(C)C/C=C(/c1ccc(Br)cc1)c1cccnc1`
3

Give me measured Hepatotoxicity (cytolytic), please, for this compound: `CN1C(=O)OC(C)(C)C1=O`
1

Give me measured Hepatotoxicity (cytolytic), please, for this compound: CC(=O)OCC(=O)[C@@]1(O)CC[C@H]2[C@@H]3CCC4=CC(=O)C=C[C@]4(C)[C@@]3(F)[C@@H](O)C[C@@]21C [ISOFLUPREDONE ACETATE]
0

Give me measured Hepatotoxicity (cytolytic), please, for this compound: Cc1cccc(N2CC(CO)OC2=O)c1 (stereo not drawn)
2

Give me measured Hepatotoxicity (cytolytic), please, for this compound: `N[C@@H]1CON=C1O`
2

Give me measured Hepatotoxicity (cytolytic), please, for this compound: `C[C@](N)(Cc1ccc(O)c(O)c1)C(=O)O`
16

Give me measured Hepatotoxicity (cytolytic), please, for this compound: CC(C(=O)Nc1cc(-c2ccccc2)nn1-c1ccccc1)N(C)C (stereo not drawn)
1

Give me measured Hepatotoxicity (cytolytic), please, for this compound: COC(=O)C1=C(C)NC(C)=C(C(=O)OC(C)C)C1c1cccc2nonc12 (stereo not drawn)
0

Give me measured Hepatotoxicity (cytolytic), please, for this compound: NC(=O)c1cccnc1 [NIACINAMIDE]
1

Give me measured Hepatotoxicity (cytolytic), please, for this compound: CCCCC(C)(O)C/C=C/[C@H]1[C@H](O)CC(=O)[C@@H]1CCCCCCCO (stereo partly drawn)
0

Give me measured Hepatotoxicity (cytolytic), please, for this compound: `C[C@@H]1CN(c2c(F)c(N)c3c(=O)c(C(=O)O)cn(C4CC4)c3c2F)C[C@H](C)N1`
0

Give me measured Hepatotoxicity (cytolytic), please, for this compound: `O=[N+]([O-])c1ccc(O)c([N+](=O)[O-])c1`
0

Give me measured Hepatotoxicity (cytolytic), please, for this compound: `C[C@]12CCC(=O)C=C1CC[C@@H]1[C@@H]2CC[C@@]2(C)[C@H]1CC[C@]2(C)O`
2
